# Test system: SW-620 colon
# ASSAY METHOD TEXT: NCI tumour cell line growth inhibition, 48 h
GI50: recorded values

[
  {
    "SMILES STRUCTURE": "Cc1ccc(C)c(-n2c(-c3ccc(Br)cc3)csc2=NC(=O)c2ccccc2F)c1",
    "GI50": "> 100 µM"
  },
  {
    "SMILES STRUCTURE": "O=C(CCl)Nc1ccccc1SCc1cc(Cl)cc2c1OCOC2",
    "GI50": "3.73 µM"
  },
  {
    "SMILES STRUCTURE": "Cc1c(C(=O)CCl)c(=O)n(-c2ccccc2)n1C",
    "GI50": "2.7 µM"
  }
]

====

# Tested on: HOP-62 NSCLC
# ASSAY METHOD TEXT: NCI tumour cell line growth inhibition, 48 h

[
  {
    "MOLECULE": "O=C1CCCSCCCC(=O)CCCSCCC1",
    "TEST TARGET": "HOP-62 NSCLC",
    "ENDPOINT UNIT": "µM",
    "QUALIFIER OPERATOR": ">",
    "TGI": 100
  },
  {
    "MOLECULE": "COc1nc(N)nc2c1n(C)c[n+]2C",
    "TEST TARGET": "HOP-62 NSCLC",
    "ENDPOINT UNIT": "µM",
    "QUALIFIER OPERATOR": ">",
    "TGI": 100
  },
  {
    "MOLECULE": "COc1cccc(-c2nc(-c3ccc(NS(=O)(=O)c4ccccc4)cc3)[nH]c2-c2ccnc(Br)c2)c1",
    "TEST TARGET": "HOP-62 NSCLC",
    "ENDPOINT UNIT": "µM",
    "QUALIFIER OPERATOR": ">",
    "TGI": 100
  },
  {
    "MOLECULE": "CCOC(=O)C(C)c1nc2cc(F)c(N3CCOCC3)cc2[nH]c1=O (configuration not stated)",
    "TEST TARGET": "HOP-62 NSCLC",
    "ENDPOINT UNIT": "µM",
    "QUALIFIER OPERATOR": ">",
    "TGI": 100
  },
  {
    "MOLECULE": "CCOC(=O)/C(=C\\NC[C@@H](C)O)c1nc2ccccc2[nH]1",
    "TEST TARGET": "HOP-62 NSCLC",
    "ENDPOINT UNIT": "µM",
    "QUALIFIER OPERATOR": ">",
    "TGI": 100
  },
  {
    "MOLECULE": "CC(C)(C)[Si](C)(C)OC1[C@@H](O[Si](C)(C)C(C)(C)C)[C@@H](CNC(=O)NC(=O)NC(=O)CI)O[C@H]1n1cnc2c(NC(=O)Nc3ccccc3)ncnc21 (some centres not stated)",
    "TEST TARGET": "HOP-62 NSCLC",
    "ENDPOINT UNIT": "µM",
    "QUALIFIER OPERATOR": "=",
    "TGI": 1.28
  },
  {
    "MOLECULE": "COc1ccc(-n2c(-c3ccc(NC(=O)CCCl)cc3)nnc2-c2cc(OC)c(OC)c(OC)c2)cc1",
    "TEST TARGET": "HOP-62 NSCLC",
    "ENDPOINT UNIT": "µM",
    "QUALIFIER OPERATOR": "=",
    "TGI": 13.4
  },
  {
    "MOLECULE": "CC1=C(C(=O)Nc2ccc(F)c(Cl)c2)C(c2cccc(O)c2)NC(=S)N1 (configuration not stated)",
    "TEST TARGET": "HOP-62 NSCLC",
    "ENDPOINT UNIT": "µM",
    "QUALIFIER OPERATOR": ">",
    "TGI": 50
  },
  {
    "MOLECULE": "O=C1C(Cl)=C(Oc2ccccc2)C(=O)c2ccccc21",
    "TEST TARGET": "HOP-62 NSCLC",
    "ENDPOINT UNIT": "µM",
    "QUALIFIER OPERATOR": "=",
    "TGI": 22.2
  },
  {
    "MOLECULE": "O=C(CSc1nc2ccc([N+](=O)[O-])cc2[nH]1)Nc1cccc(C(F)(F)F)c1",
    "TEST TARGET": "HOP-62 NSCLC",
    "ENDPOINT UNIT": "µM",
    "QUALIFIER OPERATOR": "=",
    "TGI": 10.8
  },
  {
    "MOLECULE": "COc1cc2c3c(n(CCCO)c(=O)c2cc1OC)-c1cc2c(cc1C3=O)OCO2",
    "TEST TARGET": "HOP-62 NSCLC",
    "ENDPOINT UNIT": "µM",
    "QUALIFIER OPERATOR": "=",
    "TGI": 78.3
  },
  {
    "MOLECULE": "Clc1ccc(Nc2ccnc(NCCNc3ccnc4cc(Cl)ccc34)n2)cc1",
    "TEST TARGET": "HOP-62 NSCLC",
    "ENDPOINT UNIT": "µM",
    "QUALIFIER OPERATOR": "=",
    "TGI": 2.66
  },
  {
    "MOLECULE": "N#C[C@]12CC3(CC[C@H]1CC1(C2)OCCO1)OCCO3",
    "TEST TARGET": "HOP-62 NSCLC",
    "ENDPOINT UNIT": "µM",
    "QUALIFIER OPERATOR": ">",
    "TGI": 100
  },
  {
    "MOLECULE": "CC(=O)N1c2ccccc2C2=NN=C(N(C)C)SC21 (configuration not stated)",
    "TEST TARGET": "HOP-62 NSCLC",
    "ENDPOINT UNIT": "µM",
    "QUALIFIER OPERATOR": "=",
    "TGI": 23.4
  },
  {
    "MOLECULE": "CC12CC(=O)OC(Cc3ccccc31)O2 (configuration not stated)",
    "TEST TARGET": "HOP-62 NSCLC",
    "ENDPOINT UNIT": "µM",
    "QUALIFIER OPERATOR": ">",
    "TGI": 100
  },
  {
    "MOLECULE": "O=S(=O)(O)c1cccc2ccc(O)c(N=Nc3ccc(S(=O)(=O)c4ccc(N=Nc5c(O)ccc6cccc(S(=O)(=O)O)c56)cc4)cc3)c12",
    "TEST TARGET": "HOP-62 NSCLC",
    "ENDPOINT UNIT": "µM",
    "QUALIFIER OPERATOR": ">",
    "TGI": 100
  },
  {
    "MOLECULE": "Nc1c(O)c2c(c(O)c1Cl)C(=O)C=CC2=O",
    "TEST TARGET": "HOP-62 NSCLC",
    "ENDPOINT UNIT": "µM",
    "QUALIFIER OPERATOR": "=",
    "TGI": 15.9
  }
]
